# Test: reduction of polyQ htt aggregates in cells – imaging, exon1htt(103Q)mCFP cells, high-content imaging, primary screen (AID 483);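 note: compound exposure lasted 3 days before fixation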
# Condition set: exon1htt(103Q)mCFP cell line, aggregate imaging, at 2 µM; stronger effect = higher value
Measure: inhibition of aggregation (%)
Dear colleague, please return just the value in %, with no unit written.

Solved entries:
Compound: CCOC(=O)N1CCN(Cc2nc3c(c(=O)[nH]c(=O)n3C)n2Cc2cc(C)ccc2C)CC1
Unit descriptor: %
Measured value: -78
//
Compound: CCCCNC(=O)CN(C1CCCCC1)S(C)(=O)=O
Unit descriptor: %
Measured value: -3.6
//
Compound: Cc1ccc2cc(CN(CC3CCCO3)S(=O)(=O)c3ccc4c(c3)OCCO4)c(=O)[nH]c2c1C (stereo unspecified)
Unit descriptor: %
Measured value: 8.6
//
Compound: OCc1nc2ccccc2n1CCCOc1ccccc1
Unit descriptor: %
Measured value: 11.9
//
Compound: CC(C)(CO)NC(=O)CCCOc1ccc(Cl)cc1Cl
Unit descriptor: %
Measured value: 6.2

So what's the measured inhibition of aggregation for this one? O=C1OCCC1Sc1ncnc2sccc12 (stereo unspecified)
-0.5

So what's the measured inhibition of aggregation for this one? `O=C(COC(=O)c1ccc(Br)o1)Nc1ccc(S(=O)(=O)N2CCCC2)cc1`
-10.1

So what's the measured inhibition of aggregation for this one? `O=C(c1cn(-c2ccccc2)nc1-c1cccs1)N1CCN(c2ccccn2)CC1`
11.5

So what's the measured inhibition of aggregation for this one? O=C(O)c1cccc(CN2C(=O)SC(Nc3ccccc3)C2=O)c1 (stereo unspecified)
5.6

So what's the measured inhibition of aggregation for this one? `COc1ccc2c(c1)Sc1ccccc1N2CCN(C)C`
2.5

So what's the measured inhibition of aggregation for this one? `COc1ccc(CCNC(=O)c2cnn3ccccc23)c(OC)c1OC`
-37.7

---

# Test: endothelial E-selectin expression blockers – imaging, HUVEC, immunofluorescence, MLSMR starter and 10KST1 sets, primary screen (AID 487);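 note: 100% = median nuclei count of all wells on the same plate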
# Condition set: HUVEC TNFalpha-induced E-selectin immunofluorescence imaging, at 2 µM; measured here: cell number, toxicity
Measure: nuclei count (%)
Dear colleague, please return just the value in %, with no unit written.

Solved entries:
Chemical structure: CCOc1ccc2[nH]cc(C(=O)N3CCN(CC)CC3)c(=O)c2c1
nuclei count [%]: 94.8
--
Chemical structure: CCOc1ccc(C(=O)Nc2cc(C)on2)cc1OCC
nuclei count [%]: 108
--
Chemical structure: CCOC(=O)N1CCN(C(=O)CCc2c(C)nc3c(c(C)nn3-c3ccc(C)c(C)c3)c2C)CC1
nuclei count [%]: 116
--
Chemical structure: CC(C)(C)c1ccc(OCC(=O)O)cc1
nuclei count [%]: 96.2
--
Chemical structure: N#Cc1ccc(CSc2nnc(-c3cnccn3)o2)cc1
nuclei count [%]: 105

// below: nuclei count requested for another compound
So what's the measured nuclei count for this one? `CCOC(=O)/C=C1\SCC(=O)N1Cc1nnc(-c2ccccc2Br)o1`
123

---

# Measurement target: Voltage-gated potassium channel subunit beta-2 (Rattus norvegicus)
# Test: inhibitors of rat Kvbeta2 reductase activity – biochemical, NADPH fluorescence, primary screen (AID 622);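 note: slope of raw intensity against log time taken from 70 to 1610 s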
# Condition set: recombinant KvBeta, 4-cyanobenzaldehyde reduction, at 10 µM, stronger effect = higher value
Activity calls are given as the source filed them.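 The calls were made as follows: active = fluorescence slope higher than the sample average by over 3 SD (cut at about -0.22 in these data, passing the limit was not always enough); inactive = the rest.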
Measure: fluorescence slope

Solved entries:
Compound: O=C1c2ccccc2C(O)(Cc2ccccc2)N1Cc1ccco1 (stereo unspecified)
Measure: fluorescence slope
Measured value: -0.554 (inactive)
//
Compound: CCN(CC)S(=O)(=O)c1ccc(NC(=O)c2cccc3c2C(=O)N(CCOC)C3)cc1
Measure: fluorescence slope
Measured value: -0.244 (inactive)
//
Compound: O=C(Nc1ccc(CN2CCOCC2)cc1)c1cc2ccccc2oc1=O
Measure: fluorescence slope
Measured value: -0.53 (inactive)
//
Compound: COc1ccc(OC)c(NC(=O)CSc2ncccc2C(=O)O)c1
Measure: fluorescence slope
Measured value: -0.495 (inactive)
//
Compound: COc1ccc(NC(=O)C23CCC(C)(C(=O)C2)C3(C)C)cc1 (stereo unspecified)
Measure: fluorescence slope
Measured value: -0.6 (inactive)
//
Compound: COc1cc(CO)cc(-c2cc(CO)cc(OC)c2OC)c1OC
Measure: fluorescence slope
Measured value: -0.367 (inactive)
//
Compound: CCC(=O)N(Cc1ccco1)c1nc(-c2cc(OC)ccc2OC)cs1
Measure: fluorescence slope
Measured value: -0.397 (inactive)
//
Compound: O=c1[nH]c(Nc2ccccc2)cc2ccccc12
Measure: fluorescence slope
Measured value: -0.132 (inactive)

So what's the measured fluorescence slope for this one? COCCNC(=O)C(c1ccc(C)o1)N(Cc1cccs1)C(=O)c1snc(C(N)=O)c1N (stereo unspecified)
-0.379 (inactive)

So what's the measured fluorescence slope for this one? `COc1cc(Cn2c(-c3nonc3N)nc3ccccc32)ccc1C`
-0.591 (inactive)

So what's the measured fluorescence slope for this one? `O=C(c1ccc(S(=O)(=O)N2CCC(c3nc4ccccc4s3)CC2)cc1)N1CCOCC1`
-0.392 (inactive)

---

# Test: inhibitors of TNFa-induced NFkB p65 translocation, primary screen, imaging, HUVEC, MLSMR starter and 10KST1 sets (AID 438);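 note: compound added about 3h40 before a 20 min TNFalpha stimulation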
# Condition set: HUVEC TNFa-induced p65 nuclear translocation; measured here: nuclei count (cytotoxicity indicator), at 2.08 µM
So basically: cell count at 600 or higher? That is YES. Lower than 600? That is NO.

Examples with answers:
Molecule: CN(C)C=Nc1nonc1N
Assigned label: NO

Molecule: CCOC(=O)c1oc2c(CN3CCN(C)CC3)c(O)ccc2c(=O)c1-c1ccccc1OC
Assigned label: NO

Molecule: COc1cccc(-n2nnnc2SCC(=O)NCc2ccco2)c1
Assigned label: NO

Molecule: CC(c1ccco1)N(C(=O)COc1ccc(Cl)cc1Cl)c1ccccn1 (stereo not drawn)
Assigned label: YES

Reported cell count at or above 600? `COc1ccc(-c2cc(N3CCCC3)n3ncnc3n2)cc1`
YES

Reported cell count at or above 600? `O=C(Nc1ccc(SC(F)F)cc1)c1ccc2nccnc2c1`
YES

Reported cell count at or above 600? `CCOC(=O)C1CCN(C(=O)C2CCN(S(=O)(=O)c3cc(Cl)ccc3Cl)CC2)CC1`
YES

Reported cell count at or above 600? `Cc1ccc(C(=O)Nc2c(C(=O)N3CCOCC3)cnn2-c2ccccc2)cc1`
NO

Reported cell count at or above 600? `CCSC1=NCN(CCCC(=O)O)CN1`
YES

---

# Test: endothelial E-selectin expression blockers – imaging, HUVEC, immunofluorescence, MLSMR starter and 10KST1 sets, primary screen (AID 487);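 note: 100% = median nuclei count of all wells on the same plate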
# Condition set: HUVEC TNFalpha-induced E-selectin immunofluorescence imaging, at 2 µM; measured here: cell number, toxicity
We begin with a simple list: items and their reported nuclei count.
Write the figure, then the unit, nothing else.

So what's the measured nuclei count for this one? `CCOC(=O)c1[nH]c(C)c(C(=O)N(C)C)c1C`
106%

So what's the measured nuclei count for this one? `CCC1(CC)C(=O)N(C)C(=O)NC1=NCc1ccccc1`
96.9%

So what's the measured nuclei count for this one? `COc1cccc(Nc2nc(=O)[nH]nc2C)c1`
103%

So what's the measured nuclei count for this one? O=C1c2ccccc2C(O)(Cc2ccccc2)N1Cc1ccco1 (stereo not drawn)
131%

---

We begin with a simple list: items and their reported NADPH fluorescence slope.
# Measurement target: Voltage-gated potassium channel subunit beta-2 (Rattus norvegicus) (UniProt P62483)
# Sequence (P62483 whole entry, looked up): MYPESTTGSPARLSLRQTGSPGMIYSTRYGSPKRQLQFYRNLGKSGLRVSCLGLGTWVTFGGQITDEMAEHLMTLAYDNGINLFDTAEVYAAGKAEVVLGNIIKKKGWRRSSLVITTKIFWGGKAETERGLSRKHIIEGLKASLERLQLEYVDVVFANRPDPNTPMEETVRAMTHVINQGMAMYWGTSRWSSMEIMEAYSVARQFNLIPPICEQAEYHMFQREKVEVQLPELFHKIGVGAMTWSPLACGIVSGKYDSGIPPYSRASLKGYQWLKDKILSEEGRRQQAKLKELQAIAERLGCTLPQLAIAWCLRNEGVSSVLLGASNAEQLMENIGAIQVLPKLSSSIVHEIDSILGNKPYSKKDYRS
# Test: enhancers of rat Kvbeta2 NADPH turnover – biochemical, NADPH fluorescence, primary screen (AID 623);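 note: fluorescence intensity change per second fitted from 20 to 320 s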
# Condition set: Recombinant KvBeta, NADPH fluorescence decrease slope, 10 min; at 10 µM; stronger effect = lower value
The source made the active and inactive calls.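 The calls were made as follows: active = NADPH fluorescence slope more negative than the mean of all samples by about 3 SD, 99.7% confidence; inactive = the rest.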

Solved entries:
Compound: CCCCn1c(SCC(=O)NCc2ccccc2)nc2ccc(N3CCOCC3)cc2c1=O
Measured value: 2.2e-06 (inactive)

Compound: CC(=O)Nc1ccc(OC(=O)c2cccnc2)cc1
Measured value: -4.9e-05 (inactive)

Compound: O=C(Nc1ccc(N2C(=O)C3C4C=CC(C4)C3C2=O)cc1)Nc1cccnc1 (configuration not stated)
Measured value: -2.1e-05 (inactive)

Compound: CCOc1ccccc1C(=O)NCCC(=O)O
Measured value: -0.00026 (inactive)

Compound: Oc1c(Cl)cc(Cl)c2c1NCCC2
Measured value: -3e-05 (inactive)

So what's the measured NADPH fluorescence slope for this one? COc1ccc(-c2nc(CS(=O)CC(=O)N3CCCC3)c(C)o2)cc1 (configuration not stated)
-3.2e-05 (inactive)

So what's the measured NADPH fluorescence slope for this one? `CCOc1ccccc1N(CC(=O)N1CCCCCC1)S(C)(=O)=O`
-1.3e-05 (inactive)

So what's the measured NADPH fluorescence slope for this one? `O=C(CSc1nnc(-c2ccccn2)n1Cc1ccccc1)N1CCCC1`
-6.5e-05 (inactive)

So what's the measured NADPH fluorescence slope for this one? `O=C(COc1ccc(F)cc1)Nc1ccc(-n2cnnn2)cc1`
-0.000109 (inactive)

So what's the measured NADPH fluorescence slope for this one? COC(=O)C(C)C1Sc2ccccc2NC1=O (configuration not stated)
-5.2e-05 (inactive)

So what's the measured NADPH fluorescence slope for this one? `COc1cc(CN2CCSCC2)cc(OC)c1OC`
2.1e-05 (inactive)

So what's the measured NADPH fluorescence slope for this one? `O=C(Nc1ccncc1)c1cc2ccccc2o1`
-4.4e-05 (inactive)
